target: NANP3 peptide ([…]); assay: SPR (Biacore T200), NANP3 peptide; type: binding, Plasmodium falciparum; conditions: SPR, NANP3 peptide; read-out: NANP3 KD
assay_readout: Kd

sequence_content	assay_readout	reported_measurement
LVQLVESGGGVVQPGRSLRLSCAASGFTFSSSGMHWVRQAPGKGLEWVAIIWYDGSNKFYADSVKGRFTISRDNSKNTLYLQMNSLRAEDTAVYYCARAYVSGSHGDKYGMDVWGQGTTVTVSS [CL-531912]	Kd	55 nM
